Reported Ki by item:
Study System: 5-hydroxytryptamine receptor 1F (Homo sapiens, UniProt P30939)

Sample records with Ki:
COc1cc(CC(C)N)c(OC)cc1I (stereo unspecified) [[125I]2,5-dimethoxy-4-iodoamphetamine] | 1740 nM
CC(C)NCC(O)COc1cccc2[nH]ccc12 (stereo unspecified) | > 10000 nM
COc1ccc2[nH]cc(CCN(C)C)c2c1 | 37 nM

(Q) Param item = "COc1ccc2[nH]cc(CCN)c2c1" ; retrieve measured Ki.
(A) 1170 nM

(Q) Could you do the same for "O=C(c1ccc(F)cc1)C1CCN(CCn2c(=O)[nH]c3ccccc3c2=O)CC1" , please?
(A) > 10000 nM

(Q) And the next one, "Cn1cc(CCN)c2cc(O)ccc21" ?
(A) 184 nM

(Q) Also, COc1cc(N)c(Cl)cc1C(=O)NC1CN2CCC1CC2 (stereo unspecified) [ZACOPRIDE,R] please.
(A) > 10000 nM

(Q) Same read-out for "CN1C[C@@H](NS(=O)(=O)N(C)C)C[C@@H]2c3cccc4c3c(cn4C)C[C@H]21" ?
(A) > 10000 nM

* * *

Study System: 5-hydroxytryptamine receptor 1F (Homo sapiens, UniProt P30939)
Sequence (P30939 whole entry): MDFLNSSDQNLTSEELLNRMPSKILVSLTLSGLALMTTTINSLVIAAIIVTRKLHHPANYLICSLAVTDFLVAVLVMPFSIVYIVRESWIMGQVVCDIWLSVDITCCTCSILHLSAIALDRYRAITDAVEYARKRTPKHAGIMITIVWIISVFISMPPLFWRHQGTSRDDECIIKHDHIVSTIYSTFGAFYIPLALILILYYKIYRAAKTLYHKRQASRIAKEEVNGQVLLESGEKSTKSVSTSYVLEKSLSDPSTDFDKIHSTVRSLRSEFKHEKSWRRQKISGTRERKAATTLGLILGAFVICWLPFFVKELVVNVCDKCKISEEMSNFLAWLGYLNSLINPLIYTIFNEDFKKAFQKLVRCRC
Recorded Endpoint: Ki

Study these solved cases before continuing.
CCCN(CCC)C1CCc2cccc(O)c2C1 (stereo not drawn) | 1.77 µM
CCCN(CCC)CCc1c[nH]c2ccc(C(N)=O)cc12 | 1.61 µM

(Q) // lookup Ki for "O=C(CCCN1CCC2(CC1)C(=O)NCN2c1ccccc1)c1ccc(F)cc1"
(A) > 10 µM
